Source of measurements: paper PMC10586451

# study.target: Acetylcholinesterase (AChE) (Electrophorus electricus)
# Construct: Acetylcholinesterase (AChE) from electric eel; from tissue; host or cells: electric eel
# Sequence (O42275 24-633): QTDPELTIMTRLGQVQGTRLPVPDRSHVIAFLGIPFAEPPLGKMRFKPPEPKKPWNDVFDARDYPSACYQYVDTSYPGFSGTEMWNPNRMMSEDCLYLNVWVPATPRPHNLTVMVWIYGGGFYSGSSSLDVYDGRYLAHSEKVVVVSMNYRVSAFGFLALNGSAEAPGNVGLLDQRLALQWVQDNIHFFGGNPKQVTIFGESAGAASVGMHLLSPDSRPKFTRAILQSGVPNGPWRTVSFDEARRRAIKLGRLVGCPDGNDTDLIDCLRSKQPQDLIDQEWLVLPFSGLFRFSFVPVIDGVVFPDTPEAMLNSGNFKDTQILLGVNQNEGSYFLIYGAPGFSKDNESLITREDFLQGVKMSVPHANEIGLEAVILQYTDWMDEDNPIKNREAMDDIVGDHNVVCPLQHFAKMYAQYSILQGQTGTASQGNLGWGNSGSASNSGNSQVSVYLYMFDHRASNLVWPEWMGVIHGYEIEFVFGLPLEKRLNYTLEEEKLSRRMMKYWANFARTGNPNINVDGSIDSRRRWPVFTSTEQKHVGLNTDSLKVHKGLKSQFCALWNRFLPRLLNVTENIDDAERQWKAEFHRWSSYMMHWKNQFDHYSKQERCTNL
# assay.overview: biochemical
# conditions: Selectivity index: IC50 for BChE/IC50 for AChE
Quick list: SI for AChE per entry.
quantity.kind: SI for AChE

O=C1C(=Cc2ccc3[nH]ccc3c2)SC(=NN2CCOCC2)N1c1ccccc1 1.29
Cc1ccsc1C=C1SC(=NN2CCOCC2)N(c2ccccc2)C1=O 1.43
O=C1C(=Cc2ccc(N3CCCC3)cc2)SC(=NN2CCOCC2)N1c1ccccc1 1.40
O=C1C(=Cc2ccc[nH]2)SC(=NN2CCOCC2)N1c1ccccc1 1.54
O=C1C(=Cc2ccncc2)SC(=NN2CCOCC2)N1c1ccccc1 1.29
O=C1C(=Cc2ccccc2)SC(=NN2CCOCC2)N1c1ccccc1 1.42
O=C1C(=Cc2ccc([N+](=O)[O-])cc2)SC(=NN2CCOCC2)N1c1ccccc1 1.35
Cn1cccc1C=C1SC(=NN2CCOCC2)N(c2ccccc2)C1=O 1.44
O=C1C(=Cc2c[nH]c3ccccc23)SC(=NN2CCOCC2)N1c1ccccc1 1.32

* * *

# study.target: urease (Canavalia ensiformis, UniProt P07374)
# Sequence (P07374 whole entry, looked up): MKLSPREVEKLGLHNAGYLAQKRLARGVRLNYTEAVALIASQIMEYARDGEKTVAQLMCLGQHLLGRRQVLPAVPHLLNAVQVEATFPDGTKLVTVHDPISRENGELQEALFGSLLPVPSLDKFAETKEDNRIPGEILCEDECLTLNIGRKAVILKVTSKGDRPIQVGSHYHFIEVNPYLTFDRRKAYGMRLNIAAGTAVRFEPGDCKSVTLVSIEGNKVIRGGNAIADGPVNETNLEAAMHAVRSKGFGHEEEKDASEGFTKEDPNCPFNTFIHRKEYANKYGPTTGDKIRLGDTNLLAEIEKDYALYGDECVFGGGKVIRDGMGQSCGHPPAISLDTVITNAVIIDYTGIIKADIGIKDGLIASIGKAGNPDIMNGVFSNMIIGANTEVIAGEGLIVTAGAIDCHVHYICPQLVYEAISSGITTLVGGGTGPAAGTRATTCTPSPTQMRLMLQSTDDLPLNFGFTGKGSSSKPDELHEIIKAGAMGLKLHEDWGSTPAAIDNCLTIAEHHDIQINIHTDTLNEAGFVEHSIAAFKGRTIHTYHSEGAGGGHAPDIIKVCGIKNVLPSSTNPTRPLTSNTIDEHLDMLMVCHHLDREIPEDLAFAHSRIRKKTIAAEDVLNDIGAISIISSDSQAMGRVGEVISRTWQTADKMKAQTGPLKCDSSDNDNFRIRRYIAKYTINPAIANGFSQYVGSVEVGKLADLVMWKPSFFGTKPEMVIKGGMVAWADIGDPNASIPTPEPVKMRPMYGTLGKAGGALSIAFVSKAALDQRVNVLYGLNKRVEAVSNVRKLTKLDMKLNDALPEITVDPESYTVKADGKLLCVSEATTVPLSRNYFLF
# assay.overview: biochemical
# conditions: urease activity IC50, mean ± SEM of three parallel measurements

compound	study.target	IC50 (µM)
O=C1C(=Cc2ccsc2)SC(=NN2CCOCC2)N1c1ccccc1 [Compound 16]	urease (Canavalia ensiformis, UniProt P07374)	42
S=C(Nc1ccccc1)NN1CCOCC1 [Compound 1, 1-Morpholino-3-phenylthiyourea]	urease (Canavalia ensiformis, UniProt P07374)	82.5
O=C1C(=Cc2ccc(O)cc2)SC(=NN2CCOCC2)N1c1ccccc1 [Compound 5]	urease (Canavalia ensiformis, UniProt P07374)	55.6
O=C1C(=Cc2ccccc2)SC(=NN2CCOCC2)N1c1ccccc1 [Compound 3]	urease (Canavalia ensiformis, UniProt P07374)	56.8
O=C1C(=Cc2ccc[nH]2)SC(=NN2CCOCC2)N1c1ccccc1 [Compound 18]	urease (Canavalia ensiformis, UniProt P07374)	20.2

* * *

# study.target: urease (Canavalia ensiformis, UniProt P07374)
# assay.overview: biochemical
# conditions: urease activity IC50, mean ± SEM of three parallel measurements
Form field: IC50 (one value per entry).
quantity.kind: IC50

O=C1C(=Cc2ccc3ccccc3n2)SC(=NN2CCOCC2)N1c1ccccc1 21.5 µM
O=C1C(=Cc2ccc3[nH]ccc3c2)SC(=NN2CCOCC2)N1c1ccccc1 21.7 µM
O=C1C(=Cc2cccnc2)SC(=NN2CCOCC2)N1c1ccccc1 26.2 µM
CN(C)c1ccc(C=C2SC(=NN3CCOCC3)N(c3ccccc3)C2=O)cc1 49.3 µM
O=C1C(=Cc2ccncc2)SC(=NN2CCOCC2)N1c1ccccc1 25 µM
COc1cc(C=C2SC(=NN3CCOCC3)N(c3ccccc3)C2=O)cc(OC)c1OC 53.4 µM
O=C1CSC(=NN2CCOCC2)N1c1ccccc1 65.4 µM
O=C1C(=Cc2ccccn2)SC(=NN2CCOCC2)N1c1ccccc1 27.8 µM
O=C1C(=Cc2ccc([N+](=O)[O-])cc2)SC(=NN2CCOCC2)N1c1ccccc1 51.7 µM
O=C1C(=Cc2ccc(N3CCCCC3)cc2)SC(=NN2CCOCC2)N1c1ccccc1 30.3 µM
COc1ccc(C=C2SC(=NN3CCOCC3)N(c3ccccc3)C2=O)cc1 50.8 µM
O=C1C(=Cc2ccc(N3CCOCC3)cc2)SC(=NN2CCOCC2)N1c1ccccc1 26.7 µM
O=C1C(=Cc2ccco2)SC(=NN2CCOCC2)N1c1ccccc1 46.4 µM
O=C1C(=Cc2nccs2)SC(=NN2CCOCC2)N1c1ccccc1 16.8 µM
O=C1C(=Cc2ccc(N(CCCl)CCCl)cc2)SC(=NN2CCOCC2)N1c1ccccc1 31.5 µM
Cc1ccsc1C=C1SC(=NN2CCOCC2)N(c2ccccc2)C1=O 40.2 µM
O=C1C(=Cc2ccc(Br)cc2)SC(=NN2CCOCC2)N1c1ccccc1 56.1 µM
COc1ccc(C=C2SC(=NN3CCOCC3)N(c3ccccc3)C2=O)cc1OC 54.3 µM
Cn1cccc1C=C1SC(=NN2CCOCC2)N(c2ccccc2)C1=O 18.2 µM
